Source listed as patent US8883771B2.

IC50 values for the compounds below.
TARGET_DESC: XIAP linker-BIR2-BIR3 (residues 120-356) (Homo sapiens (Human), UniProt P98170)
Sequence (P98170 120-356): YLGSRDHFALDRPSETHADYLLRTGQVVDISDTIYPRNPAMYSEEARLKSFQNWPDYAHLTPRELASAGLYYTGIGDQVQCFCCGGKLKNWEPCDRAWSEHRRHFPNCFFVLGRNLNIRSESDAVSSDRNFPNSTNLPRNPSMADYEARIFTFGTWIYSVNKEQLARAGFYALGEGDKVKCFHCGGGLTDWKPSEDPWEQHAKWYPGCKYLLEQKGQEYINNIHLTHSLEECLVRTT
METHOD_SUMMARY: Fluorescence polarization (FP) based competitive binding assay, XIAP linker-BIR2-BIR3
REPORTED_CONDITIONS: FP competitive assay, Smac-1F probe; read-out: Binding Affinities IC50 (nM) XIAP Protein

These recorded examples may help you get a feel for the data.
COMPOUND	TARGET_DESC	OBSERVATION_TYPE	RESULT
CN[C@@H](C)C(=O)N[C@H]1CN(S(=O)(=O)CCCCCCCCS(=O)(=O)N2CC[C@H]3CC[C@@H](C(=O)NC(c4ccccc4)c4ccccc4)N3C(=O)[C@@H](NC(=O)[C@H](C)NC)C2)CC[C@H]2CCC(C(=O)NC(c3ccccc3)c3ccccc3)N2C1=O (stereo partly shown) [Example 10]	XIAP linker-BIR2-BIR3 (residues 120-356) (Homo sapiens (Human), UniProt P98170)	IC50	< 10 nM
CN[C@@H](C)C(=O)N[C@H]1CN(C(=O)NCCCCCCNC(=O)N2CC[C@H]3CC[C@@H](C(=O)N[C@H]4CCC[C@@H]4c4ccccc4)N3C(=O)[C@@H](NC(=O)[C@H](C)NC)C2)CC[C@H]2CCC(C(=O)N[C@H]3CCC[C@@H]3c3ccccc3)N2C1=O (stereo in doubt) [Example 42]	XIAP linker-BIR2-BIR3 (residues 120-356) (Homo sapiens (Human), UniProt P98170)	IC50	< 1000 nM
CN[C@@H](C)C(=O)N[C@H]1CN(C(=O)NCCCCCCNC(=O)N2CC[C@H]3CC[C@@H](C(=O)NC(c4ccccc4)c4ccccc4)N3C(=O)[C@@H](NC(=O)[C@H](C)NC)C2)CC[C@H]2CCC(C(=O)NC(c3ccccc3)c3ccccc3)N2C1=O (stereo partly shown) [Example 13]	XIAP linker-BIR2-BIR3 (residues 120-356) (Homo sapiens (Human), UniProt P98170)	IC50	< 30 nM
CN[C@@H](C)C(=O)N[C@H]1CN(C(=O)NCc2cccc(CNC(=O)N3CC[C@H]4CC[C@@H](C(=O)N[C@@H]5CCCc6ccccc65)N4C(=O)[C@@H](NC(=O)[C@H](C)NC)C3)c2)CC[C@H]2CCC(C(=O)N[C@@H]3CCCc4ccccc43)N2C1=O (stereo partly shown) [Example 6]	XIAP linker-BIR2-BIR3 (residues 120-356) (Homo sapiens (Human), UniProt P98170)	IC50	< 10 nM

Request: Tell me the measured IC50 of CN[C@@H](C)C(=O)N[C@H]1CN(S(=O)(=O)CC/C=C/CCS(=O)(=O)N2CC[C@H]3CC[C@@H](C(=O)NC(c4ccccc4)c4ccccc4)N3C(=O)[C@@H](NC(=O)[C@H](C)NC)C2)CC[C@H]2CCC(C(=O)NC(c3ccccc3)c3ccccc3)N2C1=O (stereo partly shown) [Example 7] , please.
Result: < 10 nM

Request: What IC50 value was documented for this compound, CN[C@@H](C)C(=O)N[C@H]1CN(C(=O)NCCCCCCNC(=O)N2CC[C@H]3CC[C@@H](C(=O)N[C@@H]4CCC[C@H]4c4ccccc4)N3C(=O)[C@@H](NC(=O)[C@H](C)NC)C2)CC[C@H]2CCC(C(=O)N[C@@H]3CCC[C@H]3c3ccccc3)N2C1=O (stereo in doubt) [Example 43] ?
Result: < 3000 nM

Request: Find the recorded IC50 belonging to CN[C@@H](C)C(=O)N[C@H]1CN(C(=O)Nc2ccc(NC(=O)N3CC[C@H]4CC[C@@H](C(=O)N[C@@H]5CCCc6ccccc65)N4C(=O)[C@@H](NC(=O)[C@H](C)NC)C3)cc2)CC[C@H]2CCC(C(=O)N[C@@H]3CCCc4ccccc43)N2C1=O (stereo partly shown) [Example 5] and report it.
Result: < 10 nM
